Test system: A549 lung adenocarcinoma cells
METHOD_NOTES: Proliferation of A549 lung adenocarcinoma cells
Assay type: cell-based, human
TEST_PARAMETERS: 50 µM, RPMI 1 mM glucose
Procedure: For both adherent A549 and MCF10A H-RAS^V12 cell lines, growth curves were established using the IncuCyte® ZOOM technology. By collecting phase contrast images, the IncuCyte® software provides a calculated confluency percentage from which growth curves can be deducted. The cell number/density was measured by calculating the confluency of phase objects (cells) sticking on the bottom of the well. […]
PARAMETER_MEASURED: Selected from primary screen for growth inhibition of A549 cells at 50 µM

Worked set:
Cc1nc(SCCO)c2c(-c3cccs3)csc2n1 [WBC-47A] | Yes
Cc1nc(NCC(=O)Nc2ccccc2Br)c2c(-c3cccs3)csc2n1 [WBC-15C] | Yes
CC(=O)NCc1ccc(C(=O)CSc2nc(C)nc3scc(-c4cccs4)c23)o1 [WBC-29B] | No
Cc1nc(Sc2nnc3n2CCC(CN=[N+]=[N-])CC3)c2c(-c3cccs3)csc2n1 (stereo not shown) [WBC-87C] | Yes
Cc1nc(SCCN2CCOCC2)c2c(-c3cccs3)csc2n1 [WBC-44A] | Yes
COC(=O)CSc1nc(C)nc2scc(-c3cccs3)c12 [WBC-53A] | No
CCCc1nnc(Sc2nc(C)nc3scc(-c4cccs4)c23)[nH]1 [WBC-50C] | Yes
Cc1nc(SCC(=O)Nc2cc(C)on2)c2c(-c3cccs3)csc2n1 [WBC-10C] | Yes
Cc1nc(Sc2nnc(C(F)(F)F)n2C)c2c(-c3cccs3)csc2n1 [WBC-54C] | Yes

Note: attention shifts to another entry.
QUERY: # input compound: Cc1nc(Sc2nnc3n2CCCCC3)c2c(-c3cccs3)csc2n1 ; wanted: its Selected from primary screen for growth inhibition of A549 cells at 50 µM
RESULT: Yes

* * *

Tested on: A549 lung adenocarcinoma cells
METHOD_NOTES: Proliferation of A549 lung adenocarcinoma cells
Type: cell-based, human
TEST_PARAMETERS: 50 µM, RPMI 1 mM glucose
PARAMETER_MEASURED: Selected from primary screen for growth inhibition of A549 cells at 50 µM

COCCCNC(=O)CSc1nc(C)nc2scc(-c3cccs3)c12 [WBC-15B] | No
CCn1c(Sc2nc(C)nc3scc(-c4cccs4)c23)nnc1-c1ccncc1 [WBC-43C] | Yes
Cc1nc(SCC(=O)N(C)CCC#N)c2c(-c3cccs3)csc2n1 [WBC-7B] | No
Cc1nc(SCCN2CCOC2=O)c2c(-c3cccs3)csc2n1 [WBC-26C] | No
Cc1nc(NCC(=O)NCc2ccco2)c2c(-c3ccccc3)csc2n1 [WBC-4C] | Yes
Cc1nc(SCC(=O)c2ccc3c(c2)NC(=O)CO3)c2c(-c3cccs3)csc2n1 [WBC-11C] | Yes
Cc1nc(SCC(=O)N2CC(C)OC(C)C2)c2c(-c3cccs3)csc2n1 (centres unmarked) [WBC-5B] | No
Cc1nc(SCC(=O)NC(N)=O)c2c(-c3cccs3)csc2n1 [WBC-6B] | Yes

QUERY: Item CCN(C(=O)CSc1nc(C)nc2scc(-c3cccs3)c12)C1CCS(=O)(=O)C1 (centres unmarked) [WBC-2C] with A549 lung adenocarcinoma cells - Selected from primary screen for growth inhibition of A549 cells at 50 µM?
RESULT: Yes

QUERY: Item CCn1c(CCC(N)=O)nnc1Sc1nc(C)nc2scc(-c3cccs3)c12 [WBC-16C] with A549 lung adenocarcinoma cells - Selected from primary screen for growth inhibition of A549 cells at 50 µM?
RESULT: Yes

QUERY: Item Cc1nc(SCC(N)=O)c2c(-c3cccs3)csc2n1 [WBC-14A] with A549 lung adenocarcinoma cells - Selected from primary screen for growth inhibition of A549 cells at 50 µM?
RESULT: No

QUERY: Item Cc1nc(Sc2nnc(-c3cccnc3)n2C)c2c(-c3cccs3)csc2n1 [WBC-23A] with A549 lung adenocarcinoma cells - Selected from primary screen for growth inhibition of A549 cells at 50 µM?
RESULT: Yes

QUERY: Item Cc1nc(Sc2nnc(-c3ccncc3)n2C)c2c(-c3cccs3)csc2n1 [WBC-26A] with A549 lung adenocarcinoma cells - Selected from primary screen for growth inhibition of A549 cells at 50 µM?
RESULT: Yes

QUERY: Item Cc1nc(SCC(=O)NC(C)(C)C)c2c(-c3cccs3)csc2n1 [WBC-32B] with A549 lung adenocarcinoma cells - Selected from primary screen for growth inhibition of A549 cells at 50 µM?
RESULT: Yes
